- ASSAY METHOD TEXT: Inhibition of HIV1 3B gp41 fusion-active core formation after 30 mins by sandwich ELISA
- Parameters: species or system Human immunodeficiency virus 1
REPORTED METRIC: pIC50
FYI, pIC50 means -log10 of a concentration in mol per litre.

Which pIC50 is listed for `COc1ccc(S(=O)(=O)O)cc1/N=N/c1c(S(=O)(=O)O)cc2cc(Nc3nc(Nc4ccccc4)nc(Nc4cc(C)c(/N=N/c5cc(S(=O)(=O)O)cc6cc(S(=O)(=O)O)cc(O)c56)cc4OC)n3)ccc2c1O` ?
5.47
